Target: UniProt:Q02127
Test: Inhibition of N-terminal truncated human recombinant DHODH assessed as ubiquinone reduction to 2,6-dichloroindophenol at 10 uM by spectrophotometric analysis relative to control
MEASUREMENT_TYPE: inhibition (%)

[[record]]
molecule_smiles = "COc1ccc(O)c(C(=O)NCCc2ccccc2)c1"
quantitative_readout = 8


P: O=C(NCCc1ccccc1)c1ccccc1O
Q: Cc1ccc(O)c(C(=O)NCCc2ccccc2)c1
R: O=C(NCCc1ccccc1)c1c(O)cccc1O
In: With regard to inhibition, arrange the entries in ascending order, please. Please express your ranking as an ordered list of the labels.
Out: Q, P, R

a: O=C(NCCc1ccccc1)c1cc(Cl)ccc1O
b: CN(CCc1ccccc1)C(=O)c1ccccc1O
In: Dear colleague, could you let me know whether a or b has the lower recorded inhibition? Thanks. # reply format: chosen label
Out: b

====

Assay: Selectivity ratio of IC50 for N-terminal truncated human recombinant DHODH to IC50 for N-terminal truncated Plasmodium falciparum recombinant DHODH
MEASUREMENT_TYPE: Ratio IC50

[[record]]
molecule_smiles = "O=C(NCC(c1ccccc1)c1ccccc1)c1ccc(F)c(F)c1O"
quantitative_readout = 18

[[record]]
molecule_smiles = "O=C(NCC(c1ccccc1)c1ccccc1)c1cc(Cl)ccc1O"
quantitative_readout = 18

[[record]]
molecule_smiles = "O=C(NCC(c1ccccc1)c1ccccc1)c1cc(CO)ccc1O"
quantitative_readout = 18


====

Target: Dihydroorotate dehydrogenase (Plasmodium falciparum, UniProt Q54A96)
Sequence (Q54A96 whole entry, the tested form may be a part): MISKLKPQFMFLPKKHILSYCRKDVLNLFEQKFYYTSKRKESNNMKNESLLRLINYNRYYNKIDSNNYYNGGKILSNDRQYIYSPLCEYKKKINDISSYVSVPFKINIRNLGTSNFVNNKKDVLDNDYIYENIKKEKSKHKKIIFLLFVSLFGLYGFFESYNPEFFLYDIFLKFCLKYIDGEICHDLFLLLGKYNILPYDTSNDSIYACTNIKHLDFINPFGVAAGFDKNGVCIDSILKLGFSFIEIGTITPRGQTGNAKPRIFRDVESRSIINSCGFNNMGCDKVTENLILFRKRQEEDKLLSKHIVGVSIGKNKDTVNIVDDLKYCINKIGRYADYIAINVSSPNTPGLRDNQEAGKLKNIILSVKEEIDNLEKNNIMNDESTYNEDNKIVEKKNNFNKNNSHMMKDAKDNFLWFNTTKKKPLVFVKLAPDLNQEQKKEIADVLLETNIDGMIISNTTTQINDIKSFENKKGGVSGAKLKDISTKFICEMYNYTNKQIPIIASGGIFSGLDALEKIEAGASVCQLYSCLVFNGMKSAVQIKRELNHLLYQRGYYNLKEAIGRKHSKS
Assay: Inhibition of N-terminal truncated Plasmodium falciparum recombinant DHODH assessed as ubiquinone reduction to 2,6-dichloroindophenol by spectrophotometric analysis
MEASUREMENT_TYPE: IC50 (µM)

Worked cases, answers included:
[[record]]
molecule_smiles = "COc1ccc(C(=O)NCC(c2ccccc2)c2ccccc2)c(O)c1"
measurement_type = "IC50"
quantitative_readout = 14

[[record]]
molecule_smiles = "COc1ccc(O)c(C(=O)NCC(c2ccccc2)c2ccccc2)c1"
measurement_type = "IC50"
quantitative_readout = 18.1

[[record]]
molecule_smiles = "O=C(NCC(c1ccccc1)c1ccccc1)c1ccccc1O"
measurement_type = "IC50"
quantitative_readout = 21.2


P: O=C(NCC(c1ccccc1)c1ccccc1)c1cccc(F)c1O
Q: O=C(NCC(c1ccccc1)c1ccccc1)c1ccc(CO)cc1O
R: O=C(NCC(c1ccccc1)c1ccccc1)c1ccc(F)c(F)c1O
In: Kindly order the items shown according to IC50, from the highest value down. Please express your ranking as an ordered list of the labels.
Out: Q, P, R
(Q: 46.2 µM, P: 26.1 µM, R: 9.9 µM)

====

Target: Dihydroorotate dehydrogenase (quinone), mitochondrial (Homo sapiens)
Sequence (Q02127 whole entry, the tested form may be a part): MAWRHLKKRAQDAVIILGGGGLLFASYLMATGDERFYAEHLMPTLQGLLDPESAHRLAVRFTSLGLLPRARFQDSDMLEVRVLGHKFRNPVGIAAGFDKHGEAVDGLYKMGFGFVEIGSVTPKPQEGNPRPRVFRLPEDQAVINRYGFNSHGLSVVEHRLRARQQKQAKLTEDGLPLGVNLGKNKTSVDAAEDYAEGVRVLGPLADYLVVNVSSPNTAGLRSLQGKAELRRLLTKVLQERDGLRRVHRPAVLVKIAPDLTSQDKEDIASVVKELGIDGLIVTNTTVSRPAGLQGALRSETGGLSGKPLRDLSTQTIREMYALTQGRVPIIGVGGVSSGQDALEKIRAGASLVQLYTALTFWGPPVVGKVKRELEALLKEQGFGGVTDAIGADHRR
Assay: Inhibition of N-terminal truncated human recombinant DHODH assessed as ubiquinone reduction to 2,6-dichloroindophenol at 10 uM by spectrophotometric analysis relative to control
MEASUREMENT_TYPE: inhibition (%)

Worked cases, answers included:
[[record]]
compound = "O=C(NCCc1ccccc1)c1cccc(Cl)c1O"
measurement_target = "Dihydroorotate dehydrogenase (quinone), mitochondrial (Homo sapiens)"
quantitative_readout = 8

[[record]]
compound = "CC(CNC(=O)c1ccccc1O)c1ccccc1 (racemic)"
measurement_target = "Dihydroorotate dehydrogenase (quinone), mitochondrial (Homo sapiens)"
quantitative_readout = 4

[[record]]
compound = "O=C(NCCc1ccccc1)c1cc([N+](=O)[O-])ccc1O"
measurement_target = "Dihydroorotate dehydrogenase (quinone), mitochondrial (Homo sapiens)"
quantitative_readout = 26

[[record]]
compound = "COc1ccc(C(=O)NCCc2ccccc2)c(O)c1"
measurement_target = "Dihydroorotate dehydrogenase (quinone), mitochondrial (Homo sapiens)"
quantitative_readout = 5

[[record]]
compound = "O=C(NC(c1ccccc1)c1ccccc1)c1ccccc1O"
measurement_target = "Dihydroorotate dehydrogenase (quinone), mitochondrial (Homo sapiens)"
quantitative_readout = 6

[[record]]
compound = "O=C(NCC(c1ccccc1)c1ccccc1)c1ccccc1O"
measurement_target = "Dihydroorotate dehydrogenase (quinone), mitochondrial (Homo sapiens)"
quantitative_readout = 4

[[record]]
compound = "O=C(NCCc1ccccc1)c1ccc(Cl)cc1O"
measurement_target = "Dihydroorotate dehydrogenase (quinone), mitochondrial (Homo sapiens)"
quantitative_readout = 8


A: COc1cccc(C(=O)NCCc2ccccc2)c1O
B: O=C(NCc1ccccc1)c1ccccc1O
C: O=C(NCCC(c1ccccc1)c1ccccc1)c1ccccc1O
In: Kindly order the items shown according to inhibition, from the highest value down. Please express your ranking as an ordered list of the labels.
Out: C, A, B

====

Target: Dihydroorotate dehydrogenase (Plasmodium falciparum) (UniProt Q54A96)
Sequence (Q54A96 as listed by the source): as the sequence (Q54A96 whole entry, the tested form may be a part) above
Test: Inhibition of N-terminal truncated Plasmodium falciparum recombinant DHODH assessed as ubiquinone reduction to 2,6-dichloroindophenol at 10 uM by spectrophotometric analysis relative to control
MEASUREMENT_TYPE: inhibition (%)

[[record]]
molecule = "COc1ccc(O)c(C(=O)NCCc2ccccc2)c1"
measurement_type = "inhibition"
quantitative_readout = 8

[[record]]
molecule = "O=C(NCCC(c1ccccc1)c1ccccc1)c1ccccc1O"
measurement_type = "inhibition"
quantitative_readout = 22

[[record]]
molecule = "O=C(NC(c1ccccc1)c1ccccc1)c1ccccc1O"
measurement_type = "inhibition"
quantitative_readout = 0

[[record]]
molecule = "O=C(NCc1ccccc1)c1ccccc1O"
measurement_type = "inhibition"
quantitative_readout = 16

[[record]]
molecule = "O=C(NCCc1ccccc1)c1cccc(Cl)c1O"
measurement_type = "inhibition"
quantitative_readout = 10

[[record]]
molecule = "O=C(NCC(c1ccccc1)c1ccccc1)c1ccccc1O"
measurement_type = "inhibition"
quantitative_readout = 38

[[record]]
molecule = "O=C(NCCc1ccccc1)c1ccccc1O"
measurement_type = "inhibition"
quantitative_readout = 21

[[record]]
molecule = "COc1cccc(C(=O)NCCc2ccccc2)c1O"
measurement_type = "inhibition"
quantitative_readout = 7

[[record]]
molecule = "O=C(NCCc1ccccc1)c1cc([N+](=O)[O-])ccc1O"
measurement_type = "inhibition"
quantitative_readout = 5

[[record]]
molecule = "CN(CCc1ccccc1)C(=O)c1ccccc1O"
measurement_type = "inhibition"
quantitative_readout = 3


A: O=C(NCCc1ccccc1)c1ccc(Cl)cc1O
B: O=C(NCCCc1ccccc1)c1ccccc1O
In: Field: entry with larger inhibition (options A / B ). # reply format: chosen label
Out: B

1: O=C(NCCc1ccccc1)c1cc(Cl)ccc1O
2: Cc1ccc(O)c(C(=O)NCCc2ccccc2)c1
In: Field: entry with larger inhibition (options 1 / 2 ). # reply format: chosen label
Out: 1

A: COc1ccc(C(=O)NCCc2ccccc2)c(O)c1
B: CC(CNC(=O)c1ccccc1O)c1ccccc1 (racemic)
In: Dear colleague, could you let me know whether A or B has the lower recorded inhibition? Thanks. # reply format: chosen label
Out: A
(A: 9%, B: 20%)

====

Biological target: UniProt Q54A96
Experiment: Inhibition of N-terminal truncated Plasmodium falciparum recombinant DHODH assessed as ubiquinone reduction to 2,6-dichloroindophenol by spectrophotometric analysis
MEASUREMENT_TYPE: IC50 (µM)

Worked cases, answers included:
[[record]]
molecule_smiles = "O=C(NCC(c1ccccc1)c1ccccc1)c1ccc(Cl)cc1O"
quantitative_readout = 10.3

[[record]]
molecule_smiles = "O=Cc1ccc(C(=O)NCC(c2ccccc2)c2ccccc2)c(O)c1"
quantitative_readout = 16.5


a: O=C(NCC(c1ccccc1)c1ccccc1)c1cc(Cl)cc(Cl)c1O
b: Cc1ccc(O)c(C(=O)NCC(c2ccccc2)c2ccccc2)c1
In: Field: entry with larger IC50 (options a / b ). # reply format: chosen label
Out: b
(b: 14.4 µM, a: 7 µM)

a: O=C(NCC(c1ccccc1)c1ccccc1)c1cc(Cl)ccc1O
b: O=C(NCC(c1ccccc1)c1ccccc1)c1cccc(Cl)c1O
In: Dear colleague, could you let me know whether a or b has the lower recorded IC50? Thanks. # reply format: chosen label
Out: a

====

Below, each of the molecules is paired with its reported IC50 value.
Molecular target: UniProtKB Q54A96
Assay: Inhibition of N-terminal truncated Plasmodium falciparum recombinant DHODH assessed as ubiquinone reduction to 2,6-dichloroindophenol by spectrophotometric analysis

[[record]]
molecule_smiles = "O=C(NCC(c1ccccc1)c1ccccc1)c1c(O)cccc1F"
measurement_type = "IC50"
result = "> 125 µM"

[[record]]
molecule_smiles = "O=C(NCC(c1ccccc1)c1ccccc1)c1cccc(CO)c1O"
measurement_type = "IC50"
result = "> 100 µM"

[[record]]
molecule_smiles = "O=C(NCC(c1ccccc1)c1ccccc1)c1cc(CO)ccc1O"
measurement_type = "IC50"
result = "8 µM"

[[record]]
molecule_smiles = "O=C(NCC(c1ccccc1)c1ccccc1)c1cc(Br)ccc1O"
measurement_type = "IC50"
result = "10.8 µM"

[[record]]
molecule_smiles = "COc1cccc(O)c1C(=O)NCC(c1ccccc1)c1ccccc1"
measurement_type = "IC50"
result = "> 125 µM"


Consider the additional molecule presented here.
In: Data request, read-out IC50, for COc1cccc(C(=O)NCC(c2ccccc2)c2ccccc2)c1O
Out: > 500 µM
